Test: Passive permeability in MDCK2 cell with low efflux
Type: ADME, cell-based, Canis lupus familiaris, MDCK-II
Details: dog, MDCK
# Papp annotations
Kindly provide the numeric value in ×10⁻⁶ cm/s only, without the unit symbol.

INSERT INTO assay_data (molecular_string, measure_name, numeric_value) VALUES
  ('CS(=O)(=O)c1ccc(-c2cc(-c3ccc(C(N)=O)cc3)cnc2N)cc1', 'Papp', 6.7);

Please examine the following record next.
(Q) Query (molecule): `NC(=O)c1ccc(-c2cn(-c3ccc(Cl)cc3)cn2)cc1` ; field requested: Papp
(A) 2.9

---

Molecular target: Cytochrome P450 1A2 (Homo sapiens, UniProt P05177)
Sequence (P05177 whole entry): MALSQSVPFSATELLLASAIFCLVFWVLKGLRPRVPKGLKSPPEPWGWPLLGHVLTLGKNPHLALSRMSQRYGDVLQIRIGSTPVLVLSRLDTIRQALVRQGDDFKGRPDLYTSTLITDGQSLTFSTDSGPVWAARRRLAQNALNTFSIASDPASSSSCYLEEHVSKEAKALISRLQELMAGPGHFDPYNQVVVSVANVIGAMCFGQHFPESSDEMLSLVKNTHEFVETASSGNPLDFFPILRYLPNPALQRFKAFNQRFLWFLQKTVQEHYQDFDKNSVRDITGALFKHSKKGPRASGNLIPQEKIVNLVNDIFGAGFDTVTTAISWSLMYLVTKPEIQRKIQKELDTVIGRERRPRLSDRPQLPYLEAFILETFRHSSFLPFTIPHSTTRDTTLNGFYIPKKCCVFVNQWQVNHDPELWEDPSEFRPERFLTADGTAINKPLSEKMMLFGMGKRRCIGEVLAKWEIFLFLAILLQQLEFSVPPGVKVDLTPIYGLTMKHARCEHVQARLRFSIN
Measure name: pIC50
Bear in mind: pIC50 is minus log10 of a mol/L concentration; give just that figure.

(Q) Query (compound): `Nc1ccc(-c2cnc(N)c(-c3ccc(Cl)cc3)c2)cn1` ; field requested: pIC50
(A) 5.52

---

Molecular target: Mitogen-activated protein kinase kinase kinase kinase 4 (Homo sapiens)
Sequence (O95819 whole entry, the tested form may be a part): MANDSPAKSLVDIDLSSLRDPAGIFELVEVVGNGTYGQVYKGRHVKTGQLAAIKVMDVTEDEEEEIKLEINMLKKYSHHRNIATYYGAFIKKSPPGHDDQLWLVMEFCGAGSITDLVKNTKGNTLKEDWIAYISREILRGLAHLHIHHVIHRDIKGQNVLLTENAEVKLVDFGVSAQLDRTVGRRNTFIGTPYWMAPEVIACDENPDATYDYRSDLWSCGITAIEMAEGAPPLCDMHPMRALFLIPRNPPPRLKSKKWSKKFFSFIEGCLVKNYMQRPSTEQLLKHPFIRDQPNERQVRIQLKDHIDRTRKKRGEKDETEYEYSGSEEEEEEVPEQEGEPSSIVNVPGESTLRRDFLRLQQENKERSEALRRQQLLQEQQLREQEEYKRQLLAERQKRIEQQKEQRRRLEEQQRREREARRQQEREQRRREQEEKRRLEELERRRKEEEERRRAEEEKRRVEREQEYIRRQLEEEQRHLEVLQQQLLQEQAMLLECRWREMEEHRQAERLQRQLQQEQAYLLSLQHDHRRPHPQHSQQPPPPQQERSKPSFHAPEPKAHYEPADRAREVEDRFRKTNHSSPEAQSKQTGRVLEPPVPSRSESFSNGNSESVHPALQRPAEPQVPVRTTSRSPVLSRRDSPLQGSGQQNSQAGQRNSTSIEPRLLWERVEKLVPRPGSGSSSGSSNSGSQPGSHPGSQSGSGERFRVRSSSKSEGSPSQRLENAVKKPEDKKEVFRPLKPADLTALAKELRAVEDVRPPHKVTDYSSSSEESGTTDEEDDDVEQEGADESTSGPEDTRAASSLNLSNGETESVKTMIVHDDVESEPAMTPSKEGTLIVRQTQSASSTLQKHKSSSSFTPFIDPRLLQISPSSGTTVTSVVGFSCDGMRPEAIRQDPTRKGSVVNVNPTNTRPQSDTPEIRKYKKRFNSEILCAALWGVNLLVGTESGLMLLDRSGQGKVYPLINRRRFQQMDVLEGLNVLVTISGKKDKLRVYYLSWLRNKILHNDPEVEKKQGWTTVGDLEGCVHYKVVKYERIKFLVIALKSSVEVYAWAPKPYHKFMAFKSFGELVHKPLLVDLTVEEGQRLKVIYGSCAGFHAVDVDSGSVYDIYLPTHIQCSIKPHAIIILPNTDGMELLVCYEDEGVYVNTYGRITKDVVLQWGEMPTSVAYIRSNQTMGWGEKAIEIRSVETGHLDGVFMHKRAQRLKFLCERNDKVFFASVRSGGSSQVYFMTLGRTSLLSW
Assay: Inhibition of recombinant human MAP4K4 catalytic domain in presence of 10 uM ATP (Km) by FRET assay
Measure name: IC50 (nM)
Kindly provide the numeric value in nM only, without the unit symbol.

Guide cases for IC50, answers given:
INSERT INTO results (molecular_string, unit_name, numeric_value) VALUES
  ('NC(=O)c1ccc(-n2cc(-c3ccc(Cl)cc3)cn2)cc1', 'nM', 248),
  ('Nc1ccc(-c2cnc(N)c(-c3ccc(Cl)cc3)c2)cn1', 'nM', 3.7);

Please examine the following record next.
(Q) Query (compound): `NC(=O)c1ccc(-c2ncc(-c3ccc(Cl)cc3)o2)cc1` ; field requested: IC50
(A) 94

---

Assay: Solubility of compound at pH 6.5
Assay type: physicochemical
Details: buffer
Measure name: solubility (µg/mL)
Kindly provide the numeric value in µg/mL only, without the unit symbol.

INSERT INTO measurements (molecular_string, measure_name, numeric_value) VALUES
  ('Nc1ncc(-c2cnc(N)c(-c3ccc(Cl)cc3)c2)cn1', 'solubility', 2);

Please examine the following record next.
(Q) Query (compound): `Nc1ccc(-c2cnc(N)c(-c3ccc(Cl)cc3)c2)cn1` ; field requested: solubility
(A) 5800

---

Molecular target: UniProt Q12809
Sequence (Q12809 whole entry): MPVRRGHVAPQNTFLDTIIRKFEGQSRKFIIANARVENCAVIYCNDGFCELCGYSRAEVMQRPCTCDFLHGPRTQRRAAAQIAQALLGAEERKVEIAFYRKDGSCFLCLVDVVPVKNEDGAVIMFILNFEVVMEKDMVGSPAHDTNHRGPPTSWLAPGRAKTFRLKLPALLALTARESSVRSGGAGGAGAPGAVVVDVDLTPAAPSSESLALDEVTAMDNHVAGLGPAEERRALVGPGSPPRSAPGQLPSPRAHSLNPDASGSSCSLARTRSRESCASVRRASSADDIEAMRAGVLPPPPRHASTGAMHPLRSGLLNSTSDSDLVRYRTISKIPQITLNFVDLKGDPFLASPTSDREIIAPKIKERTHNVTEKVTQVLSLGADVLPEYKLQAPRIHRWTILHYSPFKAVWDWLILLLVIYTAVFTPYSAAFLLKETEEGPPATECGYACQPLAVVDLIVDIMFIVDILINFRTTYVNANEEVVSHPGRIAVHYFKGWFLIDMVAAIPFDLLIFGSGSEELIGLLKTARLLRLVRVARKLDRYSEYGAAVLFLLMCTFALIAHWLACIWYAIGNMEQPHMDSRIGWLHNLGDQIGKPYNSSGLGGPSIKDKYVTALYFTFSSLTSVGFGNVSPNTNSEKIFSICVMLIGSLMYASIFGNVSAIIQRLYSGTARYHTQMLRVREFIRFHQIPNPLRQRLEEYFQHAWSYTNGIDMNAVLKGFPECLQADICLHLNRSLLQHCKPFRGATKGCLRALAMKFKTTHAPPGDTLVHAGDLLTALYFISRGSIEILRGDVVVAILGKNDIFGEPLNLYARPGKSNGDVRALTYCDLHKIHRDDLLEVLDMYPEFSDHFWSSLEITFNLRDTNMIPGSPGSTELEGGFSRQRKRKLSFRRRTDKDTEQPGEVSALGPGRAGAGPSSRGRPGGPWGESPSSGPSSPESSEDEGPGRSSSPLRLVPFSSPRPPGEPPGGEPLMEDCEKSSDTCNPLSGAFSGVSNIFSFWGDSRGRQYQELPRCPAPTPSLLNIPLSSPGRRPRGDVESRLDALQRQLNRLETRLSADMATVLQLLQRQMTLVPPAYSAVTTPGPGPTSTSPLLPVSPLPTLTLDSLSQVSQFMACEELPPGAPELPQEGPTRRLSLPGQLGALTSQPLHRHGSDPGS
Experiment: Inhibition of human ERG transfected in HEK293 cells
Measure name: pIC50
Bear in mind: pIC50 is minus log10 of a mol/L concentration; give just that figure.

(Q) Query (molecule): `Nc1ccc(-c2cnc(N)c(-c3ccc(Cl)cc3)c2)cn1` ; field requested: pIC50
(A) 5.74

---

Test: Fraction unbound in mouse plasma at 10 mg/kg, po
Format: ADME, organism-based
Measure name: fraction unbound
Answer with a bare number; do not write a unit.

(Q) Query (molecule): `Nc1ccc(-c2cnc(N)c(-c3ccc(Cl)cc3)c2)cn1` ; field requested: fraction unbound
(A) 0.038

---

Target: CYP3A4 (Homo sapiens, UniProt P08684)
Sequence (P08684 whole entry): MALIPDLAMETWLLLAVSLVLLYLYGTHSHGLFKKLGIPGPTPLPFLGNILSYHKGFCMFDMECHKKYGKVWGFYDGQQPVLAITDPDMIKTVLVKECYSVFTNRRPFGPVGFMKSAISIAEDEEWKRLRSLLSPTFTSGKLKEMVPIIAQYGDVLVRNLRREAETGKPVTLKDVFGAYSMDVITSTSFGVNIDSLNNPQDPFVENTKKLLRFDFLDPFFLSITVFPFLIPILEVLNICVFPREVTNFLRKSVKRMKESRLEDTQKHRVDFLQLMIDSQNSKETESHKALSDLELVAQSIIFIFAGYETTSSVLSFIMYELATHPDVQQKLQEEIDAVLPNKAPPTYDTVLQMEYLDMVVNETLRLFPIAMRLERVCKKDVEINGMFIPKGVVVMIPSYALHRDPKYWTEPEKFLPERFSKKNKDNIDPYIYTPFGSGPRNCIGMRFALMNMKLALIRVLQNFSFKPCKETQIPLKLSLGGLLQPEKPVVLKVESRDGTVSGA
Test: Inhibition of CYP3A4 (unknown origin) at 3 uM
Type: ADME
Measure name: inhibition at 3 µM

INSERT INTO results (molecular_string, measure_name, result) VALUES
  ('Nc1ccc(-c2cnc(N)c(-c3ccc(Cl)cc3)c2)cn1', 'inhibition at 3 µM', '< 15%');

(Q) So what inhibition at 3 µM did `Nc1ncc(-c2cnc(N)c(-c3ccc(Cl)cc3)c2)cn1` get with CYP3A4 (Homo sapiens, UniProt P08684)?
(A) < 15%

---

# inhibition at 3 µM annotations
Target: CYP2C9 (Homo sapiens, UniProt P11712)
Sequence (P11712 whole entry): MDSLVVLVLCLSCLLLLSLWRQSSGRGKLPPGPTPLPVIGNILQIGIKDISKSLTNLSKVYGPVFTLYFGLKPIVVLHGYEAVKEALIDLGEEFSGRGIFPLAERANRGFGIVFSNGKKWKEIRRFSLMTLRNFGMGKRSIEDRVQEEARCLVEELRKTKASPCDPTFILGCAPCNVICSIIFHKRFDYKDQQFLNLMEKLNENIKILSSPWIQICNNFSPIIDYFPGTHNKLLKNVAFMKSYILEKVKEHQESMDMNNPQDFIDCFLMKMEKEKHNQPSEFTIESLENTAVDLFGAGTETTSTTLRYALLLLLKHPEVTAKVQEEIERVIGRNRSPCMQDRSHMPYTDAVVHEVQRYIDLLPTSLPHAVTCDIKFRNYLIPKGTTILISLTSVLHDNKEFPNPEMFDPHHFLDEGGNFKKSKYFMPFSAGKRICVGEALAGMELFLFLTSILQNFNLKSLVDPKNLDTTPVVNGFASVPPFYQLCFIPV
Experiment: Inhibition of CYP2C9 (unknown origin) at 3 uM
Type: ADME

INSERT INTO results (molecular_string, result) VALUES
  ('Nc1ccc(-c2cnc(N)c(-c3ccc(Cl)cc3)c2)cn1', '< 15%');

Please examine the following record next.
(Q) Query (compound): `Nc1ncc(-c2cnc(N)c(-c3ccc(Cl)cc3)c2)cn1` ; field requested: inhibition at 3 µM
(A) < 15%

---

Target: CYP3A4 (Homo sapiens)
Test: Time dependent inhibition of CYP3A4 (unknown origin) using midazolam as substrate at 30 uM
Format: ADME
Details: probe midazolam
Measure name: inhibition at 30 µM

INSERT INTO assay_data (molecular_string, result) VALUES
  ('Nc1ccc(-c2cnc(N)c(-c3ccc(Cl)cc3)c2)cn1', '54%');

Please examine the following record next.
(Q) Query (compound): `Nc1ncc(-c2cnc(N)c(-c3ccc(Cl)cc3)c2)cn1` ; field requested: inhibition at 30 µM
(A) 8%

---

Biological target: CYP3A4 (Homo sapiens, UniProt P08684)
Experiment: Time dependent inhibition of CYP3A4 (unknown origin) using midazolam as substrate at 60 uM
Assay type: ADME
Conditions: probe midazolam
Measure name: inhibition at 60 µM (%)
Kindly provide the numeric value in % only, without the unit symbol.

INSERT INTO results (molecular_string, assay_target, numeric_value) VALUES
  ('Nc1ncc(-c2cnc(N)c(-c3ccc(Cl)cc3)c2)cn1', 'CYP3A4 (Homo sapiens, UniProt P08684)', 24);

(Q) So what inhibition at 60 µM did `Nc1ccc(-c2cnc(N)c(-c3ccc(Cl)cc3)c2)cn1` get with CYP3A4 (Homo sapiens, UniProt P08684)?
(A) 61

---

Biological target: CYP2D6 (Homo sapiens)
Sequence (P10635 whole entry): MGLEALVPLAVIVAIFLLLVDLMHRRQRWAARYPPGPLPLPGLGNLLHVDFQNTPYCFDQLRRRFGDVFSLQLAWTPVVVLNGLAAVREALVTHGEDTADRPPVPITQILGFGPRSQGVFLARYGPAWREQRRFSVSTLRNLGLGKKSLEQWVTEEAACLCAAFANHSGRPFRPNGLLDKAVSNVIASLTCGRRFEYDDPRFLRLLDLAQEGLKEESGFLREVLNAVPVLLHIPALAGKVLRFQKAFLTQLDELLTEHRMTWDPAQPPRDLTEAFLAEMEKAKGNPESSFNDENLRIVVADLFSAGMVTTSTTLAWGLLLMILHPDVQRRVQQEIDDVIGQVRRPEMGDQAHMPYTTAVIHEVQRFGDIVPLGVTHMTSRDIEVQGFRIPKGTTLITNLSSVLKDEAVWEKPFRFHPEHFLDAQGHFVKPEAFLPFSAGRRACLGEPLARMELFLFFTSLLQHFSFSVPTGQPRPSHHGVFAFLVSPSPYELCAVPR
Test: Inhibition of CYP2D6 (unknown origin) at 3 uM
Assay type: ADME
# inhibition at 3 µM annotations

INSERT INTO assay_data (molecular_string, assay_target, result) VALUES
  ('Nc1ccc(-c2cnc(N)c(-c3ccc(Cl)cc3)c2)cn1', 'CYP2D6 (Homo sapiens)', '< 15%');

Please examine the following record next.
(Q) Query (compound): `Nc1ncc(-c2cnc(N)c(-c3ccc(Cl)cc3)c2)cn1` ; field requested: inhibition at 3 µM
(A) < 15%

---

Assay: Passive permeability in MDCK2 cell with low efflux
Type: ADME, cell-based, Canis lupus familiaris, MDCK-II
Conditions: dog, MDCK
Measure name: Papp (×10⁻⁶ cm/s)
Kindly provide the numeric value in ×10⁻⁶ cm/s only, without the unit symbol.

INSERT INTO assay_data (molecular_string, unit_name, numeric_value) VALUES
  ('NC(=O)c1ccc(-c2cncc(-c3ccc(Cl)cc3)c2)cc1', '×10⁻⁶ cm/s', 8.7);

(Q) Query (compound): `CS(=O)(=O)c1ccc(-c2cc(-c3ccc(O)cc3)cnc2N)cc1` ; field requested: Papp
(A) 17.2

(Q) Now try `Cn1c(-c2ccc(Cl)cc2)cnc1-c1ccc(C(N)=O)cc1` .
(A) 15.6

---

Experiment: Passive permeability in MDCK2 cell with low efflux
Type: ADME, cell-based, Canis lupus familiaris, MDCK-II
Conditions: dog, MDCK
# Papp annotations
Kindly provide the numeric value in ×10⁻⁶ cm/s only, without the unit symbol.

INSERT INTO results (molecular_string, measure_name, numeric_value) VALUES
  ('Nc1ncc(-c2cc[nH]c(=O)c2)cc1-c1ccc(Cl)cc1', 'Papp', 15.7),
  ('COc1ccc(-c2cncc(-c3ccc(C(N)=O)cc3)c2)cc1', 'Papp', 8.7),
  ('Nc1ccc(-c2cnc(N)c(-c3ccc(Cl)cc3)c2)cn1', 'Papp', 7.1),
  ('NC(=O)c1ccc(-c2cc(-c3ccc(Cl)cc3)ccn2)cc1', 'Papp', 4.4);

Please examine the following record next.
(Q) Query (compound): `NC(=O)c1ccc(-c2cncc(-c3ccc(OC4CC4)cc3)c2)cc1` ; field requested: Papp
(A) 3.5
